- method: folding stability dG unfold from trypsin proteolysis; higher = more stable
measurement.kind: folding stability dG unfold (kcal/mol)
Give bare numbers, in kcal/mol.

// worked examples, folding stability dG unfold included
SAGGSAGGSAGGMTQEVTLEPLPDGTVKLLSVEAPESTVTVPVKLPGGGEEVRTLPPEALSAGGSAGGSAGG [r7_829_JUSTAS]: -0.0201
SADDDEEQKEKQKPKPQIPIKPVATYNFPDHPFEIWEIDPDNGRIIIRFWGNGWWYEMDPEDGEWEWYPSAG [r14_359_TrROS]: 1.81
SAGGPGMEPIGEIKLDDGVTIEVWRPPNGWYRAKVEFPDNGKQINYPFNPNMSFEQAKDQIKELARKLSAGG [r13_624_TrROS]: 0.519
SAGGSAGGSAGGATAEELAAALKELEAKLKALLEKPEEVEVEVEVKAPEVEEVDGKLVLLSAGGSAGGSAGG [r7_44_TrROS_Hall]: 0.651
SAMVSVTELPDGGVLATFPLPDGHPATAVFDPADLKPSVAYFPNGLRAVLRVTPDGRVELLAVEDVPPASAG [r14_877_TrMRF]: 0.892
SAGGGMQAVSPVKTETKTSPDGTTTTTTTTRYPDGTVVVPVTETSPTGGAKKVATTTVSLGPPSPALASAGG [r13_494_JUSTAS]: -0.315

Now for another entry.
folding stability dG unfold lookup needed for SAGGSKMEIVKYDKEKNVIYVRVDGKTYTFPLDEITEVTFDEETGELTIKVNGKTYTIKLDLPDLVSAGGSA [r2_48_TrROS_Hall] , thanks.
3.22

###

- method: folding stability dG unfold from trypsin proteolysis; higher = more stable
Assign folding stability dG unfold to each entry below.
One number for each entry, in kcal/mol.

Examples with their reported folding stability dG unfold follow.
SAGGSAGGSAGLEALKKALEALPPGEERELEIEVEVDGKLYRFRIRVEKTEDGEYKATIELESAGGSAGGSA [r18_493_TrROS_Hall]: 4.56
SAGGPGRMREREFEIEFPFEPGQSIEDALRELIGLPPGIQIEDIKVEVDPEDGWVKISVTITVYDPNDSAGG [r13_828_TrROS]: 1.22

Provide reported folding stability dG unfold for each item, in the same order as listed.
1. SAGGSAGGSAGGMIKVTFKIPGKNETIEIDFDSEEELEEKFKELREKLGYNIEVVEIEESAGGSAGGSAGGS [r10_1087_JUSTAS]
2. SAGGMTITVRVKAENPEEAIKKVEETVRSLGYRVVELKEVEVRYDEATGEVFVEATVEVEPLPEEEGSAGGS [r16_155_TrMRF]
3. SAGGSAGGSAGGKIKILKKNKTKEEIKKELAEKYNVKKIEIKPIKGNTYLVEIEVEPEESAGGSAGGSAGGS [r10_1219_TrMRF]
4. SAPIVIPAKAGSPENVLKAIKEAKELASKGKKVYLPILTKDGPIFFEVDPKTKTIKIYNPKTGEKKDLSSAG [r14_423_TrMRF]
5. SAGGAKITVDDNKITIELPLPNGKPAGSINEPLPDGSSRILVKFPDFVLHLEITPEGIKIASIDNNKDSAGG [r13_619_TrMRF]

1. 2.19
2. 4.37
3. -0.364
4. 1.45
5. 1.27

###

- method: folding stability dG unfold (combined trypsin and chymotrypsin); higher = more stable
I'd appreciate it if you could supply folding stability dG unfold values for the items below.
Answers are plain numbers, in kcal/mol.

SAGGSAGGSDRYLAVVFVRRADDPTPEVRTFTGIRTLADVERAVADALPADVAEVRIVVFPVRSAGGSAGGS [r20_29_TrMRF]: 1.67
SAGGSAGGIYIFFPPEDLEPIAPFTITIEVKRRDPDGDEPQPRKQTIPIRIYRAPNNNLMIEPGSAGGSAGG [r6_278_TrROS]: 0.881
SAGGGMQAVSPVKTETKTSPDGTTTTTTTTRYPDGTVVVPVTETSPTGGAKKVATTTVSLGPPSPALASAGG [r13_494_JUSTAS]: 0.599
SAGGEETVTLELELEFEPGMTEEELEEKARELAEALAEELGLEVEVEVRVERDEDGRVRVTVEVRVKSAGGS [r16_279_TrROS_Hall]: 2.56
SMKRVLILVPDPSVDKEELIEELKKKGFEDIEVVDSEEELKKLPENIDVVVIVRDGEVEVREVPPVEALKSA [r9_750_JUSTAS]: 0.706

For each entry beneath this line, provide reported folding stability dG unfold.
1. SAGGSAGGSAGPPTSILEVKPGGEVTIKEGGTPVTVPSSVPYINLPEGGSAGSVEVPPELSAGGSAGGSAGG [r11_647_JUSTAS]
2. SAGGMTLTIEIVVPPGTTVEELKKALEELGYEITSIEVEYDPETDLVTVRMEIRLPPPPPVSEEEKKSAGGS [r16_584_TrROS_Hall]
3. SAGGKSVHIPGLSFEDLRDLIRNLPEPVTIHIEMPMRYPMYKYENGKPKEWQRQEMPMTSTFKIPPDDSAGG [r13_632_TrROS]
4. SPPVSTTTPVPDPENGVVVATVTLTTDPTTGEKTLILKSPEGKTKTVTLSPDETFPVEGLPKGLTATSSVSA [r9_1150_JUSTAS]
5. SAGGSAGGPLYRVLILLKKPNGEPLLLPLVAEDPEKALELAERLRKEYEEKGYELVAVEIYEFPSAGGSAGG [r6_869_TrMRF]
6. SAGGSAGGSAGGMKVTVEYPDALSVEVEPDSATTTYPNGSRIVVEAPGVTTYDPLPPERSSAGGSAGGSAGG [r7_30_JUSTAS]
7. SASFTLTPVTVTLSPDPETGAILAPVLATAGDHPVFGLAYVDPLDPSRAYYRIYYPPSDLVEYAVVPLPSAG [r14_178_TrMRF]
8. SAGGSAGGSAGVIVTPEGDRIVTYDPNTGSVTVTPLDAAGNPLTTTVVAPNGPVVTVTELSAGGSAGGSAGG [r17_385_JUSTAS]

-0.314
2.73
-0.565
0.0862
5.22
-0.39
0.722
1.22

Please give folding stability dG unfold, item by item, for the list that follows.
1. SAGIYIPMDMTIDELVDILQKFGIRSVTTERMPEPGMYKATLKFPDLTIEIWYHPNWMHIEIVPPGEPISAG [r5_899_TrROS]
2. SAKEPVYLVRIRVEIYKDGKPVKELEIEVEVEEGETLEEVLERLREELEKKGYKIVKVEIEVRKLPPPESAG [r14_979_TrROS_Hall]
3. SAGGSAGGSAGTVTVDPEKGVVYVPLPEPISPEEVIEKRKEPELDVKILSVGENVAVILVSAGGSAGGSAGG [r17_323_JUSTAS]
4. SAGGSAGGSWEWITAEEALKRAREENPPGKPIEFHFEDPWYFTVRFDGEDPNDVTIEWVPLEKSAGGSAGGS [r12_648_TrROS]

3.85
4.72
-0.218
1.4

Provide each entry's folding stability dG unfold from the list below.
1. SAGGMIRITEGPNYYKITFWMPPNNPSLLEEIADFFGNPKVDTEPIPEDGMTRHEITLPLDDPEAIKSAGGS [r16_479_TrROS]
2. SAGMKSLTITETVTDPNSDNPITIITDPVTGKVIKLYPDGTATVYDPNNPNKSTTYKMSPEEVIEKMSSSAG [r5_491_JUSTAS]
3. SMTIEIEVDGKTVTVEIDPKTGKIKKVVVKDKETGEWKELSDEEIEKLLKELEDELREKREKLEKEGKEPSA [r9_368_TrROS_Hall]
4. SAGGSAGGSPGKPYVEVEFTFIAFFPDGWLWVMTMKIEIPPDNNEIKPDIEMERIPLPPGQFLSAGGSAGGS [r12_811_TrROS]
5. SMEMTPEERLLALLREARKKHPGKKIVLSVEEIEELLGVDLSAEEIAKLLKEELGIDEVEIVEEEEPEEESA [r9_738_TrROS_Hall]
6. SAGGSAGGNTIELPLPNGMELEIPVQKNPEGYYQVNIERYDPDDGKKKEIPFTMPAEDIKDFLKSAGGSAGG [r6_859_TrROS]

1: 1.19; 2: 0.673; 3: 2.53; 4: 2.7; 5: 3.01; 6: -0.785

Batch lookup, folding stability dG unfold per entry.
1. SAGGMPEVKYLEITITVEVPTEEEALEKLKEELKKLFPNAEIVSVEVEVEEEDGKLTVTVKITVKLPSAGGS [r8_120_TrROS_Hall]
2. SAGGSAGGSADIGDPSKIKPKPLHFSFPVKIKLSFEYNGPDGVKKTFSLELTFTVVDKGLGSAGGSAGGSAG [r3_380_TrMRF]

1: 3.35; 2: 3.89

The reported numbers originate from the supplement of paper PMC12764529.
